- System: hNav1.5 channels (Homo sapiens)
- Sequence (Q14524 whole entry): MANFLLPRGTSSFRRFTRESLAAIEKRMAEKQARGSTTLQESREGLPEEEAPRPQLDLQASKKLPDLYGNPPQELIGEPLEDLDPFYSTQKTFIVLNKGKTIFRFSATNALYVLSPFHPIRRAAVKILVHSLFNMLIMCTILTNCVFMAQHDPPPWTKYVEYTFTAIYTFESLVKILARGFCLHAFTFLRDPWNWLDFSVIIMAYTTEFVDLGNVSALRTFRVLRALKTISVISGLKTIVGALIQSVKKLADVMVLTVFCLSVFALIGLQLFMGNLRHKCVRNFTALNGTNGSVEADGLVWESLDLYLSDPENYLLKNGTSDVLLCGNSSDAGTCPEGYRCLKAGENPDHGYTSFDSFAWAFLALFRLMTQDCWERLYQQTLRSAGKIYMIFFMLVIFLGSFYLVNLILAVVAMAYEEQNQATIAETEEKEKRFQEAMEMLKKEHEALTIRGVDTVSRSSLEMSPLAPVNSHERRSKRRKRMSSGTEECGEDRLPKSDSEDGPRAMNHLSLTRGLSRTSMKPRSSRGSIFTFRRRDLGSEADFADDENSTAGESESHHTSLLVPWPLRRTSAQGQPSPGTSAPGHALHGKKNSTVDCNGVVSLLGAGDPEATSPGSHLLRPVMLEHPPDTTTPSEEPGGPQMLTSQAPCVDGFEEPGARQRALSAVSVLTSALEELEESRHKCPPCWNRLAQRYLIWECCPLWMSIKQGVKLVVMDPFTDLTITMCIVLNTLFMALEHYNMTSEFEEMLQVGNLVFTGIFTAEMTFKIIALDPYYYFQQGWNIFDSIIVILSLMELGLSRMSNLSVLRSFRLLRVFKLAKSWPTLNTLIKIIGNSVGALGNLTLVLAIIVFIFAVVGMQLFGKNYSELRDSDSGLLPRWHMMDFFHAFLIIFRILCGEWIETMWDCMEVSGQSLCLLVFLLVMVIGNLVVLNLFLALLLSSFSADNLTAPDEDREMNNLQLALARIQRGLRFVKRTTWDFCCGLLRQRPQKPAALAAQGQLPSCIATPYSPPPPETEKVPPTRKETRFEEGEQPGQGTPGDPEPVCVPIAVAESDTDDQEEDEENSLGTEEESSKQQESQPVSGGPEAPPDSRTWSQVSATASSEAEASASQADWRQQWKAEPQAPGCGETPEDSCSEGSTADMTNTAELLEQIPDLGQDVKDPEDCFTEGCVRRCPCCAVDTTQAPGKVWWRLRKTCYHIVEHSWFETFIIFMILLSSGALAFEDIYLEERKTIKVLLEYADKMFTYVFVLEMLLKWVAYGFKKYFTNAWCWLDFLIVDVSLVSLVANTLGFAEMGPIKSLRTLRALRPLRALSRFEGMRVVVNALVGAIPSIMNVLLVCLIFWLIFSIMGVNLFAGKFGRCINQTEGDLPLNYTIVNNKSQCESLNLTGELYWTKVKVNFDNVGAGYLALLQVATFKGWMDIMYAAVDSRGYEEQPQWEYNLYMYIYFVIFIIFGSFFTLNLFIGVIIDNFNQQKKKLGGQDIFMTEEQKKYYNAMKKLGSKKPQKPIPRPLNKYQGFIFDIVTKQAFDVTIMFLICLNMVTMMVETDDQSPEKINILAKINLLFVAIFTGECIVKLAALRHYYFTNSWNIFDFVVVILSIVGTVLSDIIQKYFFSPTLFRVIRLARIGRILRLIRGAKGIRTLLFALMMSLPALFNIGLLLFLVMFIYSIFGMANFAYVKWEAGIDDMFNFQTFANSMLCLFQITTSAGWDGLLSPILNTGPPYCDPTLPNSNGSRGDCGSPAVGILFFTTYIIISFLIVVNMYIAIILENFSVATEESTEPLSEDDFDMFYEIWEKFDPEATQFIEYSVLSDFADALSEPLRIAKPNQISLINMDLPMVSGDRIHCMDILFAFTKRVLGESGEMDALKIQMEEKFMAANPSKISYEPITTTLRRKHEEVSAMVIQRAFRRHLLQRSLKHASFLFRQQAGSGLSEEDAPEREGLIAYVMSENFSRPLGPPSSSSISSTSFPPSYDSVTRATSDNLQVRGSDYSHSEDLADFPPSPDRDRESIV
- Assay summary: Whole-cell voltage-clamp on human Nav1.5 channels stably expressed in CHL cells
pIC50: −log10 of the molar value.

Compound	pIC50
N#Cc1cc(S(=O)(=O)Nc2ncns2)ccc1OC(CCC12CCC(c3ccccc31)c1ccccc12)COCCN1CCCC1 (stereo not shown) [10o]	4.47

###

- System: hNav1.7 channels (Homo sapiens)
- Assay summary: cell-based
- Setup conditions: HEK293 cells stably expressing hNav1.7
Outcome measure: inhibitory activity against Nav1.7 (in words)

Compound	Experimental value
CCN(C)CC(CCC12CCC(c3ccccc31)c1ccccc12)Oc1ccc(S(=O)(=O)Nc2ncns2)cc1C#N (stereo not drawn) [10b]	weak
CN(CCc1ccccc1)CC(CCC12CCC(c3ccccc31)c1ccccc12)Oc1ccc(S(=O)(=O)Nc2ncns2)cc1C#N (stereo not drawn) [10f]	weak
C=CCN(C)CC(CCC12CCC(c3ccccc31)c1ccccc12)Oc1ccc(S(=O)(=O)Nc2ncns2)cc1C#N (stereo not drawn) [10d]	weak

###

- System: hNav1.7 channels (Homo sapiens)
- Assay summary: cell-based
- Setup conditions: Nav1.7 versus Nav1.5

Molecule	Nav1.7/Nav1.5 selectivity (in words)
N#Cc1cc(S(=O)(=O)Nc2ncns2)ccc1OC(CCC12CCC(c3ccccc31)c1ccccc12)COCCN1CCOCC1 (centres unmarked) [10q]	good selectivity
CNCCOCC(CCC12CCC(c3ccccc31)c1ccccc12)Oc1ccc(S(=O)(=O)Nc2ncns2)cc1C#N (centres unmarked) [10l]	well maintained
N#Cc1cc(S(=O)(=O)Nc2ncns2)ccc1OC(CCC12CCC(c3ccccc31)c1ccccc12)COCCN1CCC1 (centres unmarked) [10n]	good selectivity
N#Cc1cc(S(=O)(=O)Nc2ncns2)ccc1OC(CCC12CCC(c3ccccc31)c1ccccc12)COCCN1CCCCC1 (centres unmarked) [10p]	good selectivity
CN(C)CCOCC(CCC12CCC(c3ccccc31)c1ccccc12)Oc1ccc(S(=O)(=O)Nc2ncns2)cc1C#N (centres unmarked) [10k]	well maintained
